- PROCEDURE_SUMMARY: small-molecule microarray binders of probe aWnt5a, primary screen, biochemical, biotinylated probe, 635/667 nm fluorescence (AID 1113);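 note: score merges 667 nm fluorescence intensity with signal-to-noise per printed feature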
- CONDITION_SET: higher = more signal
Consider the following molecules and their measured composite z-score readings.
Give the value as a plain number.

# count of solved cases: 10
Requested read-out: composite z-score. Entry: CCCCC(=C=CC[C@@H](O)c1ccccc1OCCO)CCO
-0.147

Same lookup for CCCCN1CC=CC23O[C@@H]4C=CCOC(=O)[C@@H]4[C@H]2C(=O)N(CCCCCO)[C@@H]3C1=O (stereo partly specified) , please.
-0.124

Same lookup for COC(=O)c1c(CC[C@@H](CO)NC(=O)N[C@@H](C)Cn2cc(C3(O)CCCCC3)nn2)oc(C(C)=O)c1C(=O)OC , please.
-0.0556

Same lookup for O=C(NCc1ccccc1)[C@@H]1c2ccccc2C(=O)N(CC23CC4CC(CC(C4)C2)C3)[C@H]1c1ccc(CO)cc1 , please.
-0.0957

Same lookup for CN1C(=O)C2C=CC(C(O)c3ccccc3)N(Nc3ccccc3)C2C1=O (stereo unspecified) , please.
-0.0758

Same lookup for COCCOC(=O)N1C(=O)[C@@]2(c3cc(C#Cc4ccc(OC)cc4)ccc31)[C@H](c1ccccc1OCCO)N1[C@H](c3ccccc3)[C@H](c3ccccc3)OC(=O)[C@H]1[C@@H]2C(=O)N1CCN(c2ncccn2)CC1 , please.
-0.118

Same lookup for O=C1C[C@]2(c3ccc([N+](=O)[O-])cc3)C(=O)N(CCN3CCOCC3)c3cc(CO)ccc3[C@H]2N1C1CCCCC1 , please.
-0.363

Same lookup for COc1cc(OC)c(C(O)C2C=CC3C(=O)NC(=O)C3N2Nc2ccc(Cl)cc2Cl)cc1Br (stereo unspecified) , please.
-0.0685

Same lookup for COc1ccc(C(O)C2C=CC3C(=O)N(c4ccccc4)C(=O)C3N2Nc2ccccc2F)cc1OCc1ccccc1 (stereo unspecified) , please.
0.108

Same lookup for [N-]=[N+]=Nc1ccccc1C[C@@]1(C(=O)NCCN2CCOCC2)N=C(c2ccc(OCCCO)cc2)O[C@@H]1c1ccccc1 , please.
-0.0303

Others:
Requested read-out: composite z-score. Entry: C=C(CCCC)C(=O)CC[C@H](OC(=O)c1cccnc1)c1ccccc1OCCO
-0.0758

Same lookup for CC(C)OC(=O)C=C1C[C@@H](c2ccccc2C(F)(F)F)O[C@@H](c2ccccc2C(F)(F)F)O1 , please.
-0.13

Same lookup for C=CC[C@]1(C(=O)N2CCCCC2)N=C(c2ccc(OCCCO)cc2)O[C@H]1c1ccccc1 , please.
0.15

Same lookup for COCC(=C=CC[C@@H](O)c1ccccc1OCCO)C[C@@H](O)c1cc(Cl)cc(Cl)c1O , please.
-0.126

Same lookup for Cc1ccc(C(C)CC(O)C2C=CC3C(=O)N(C)C(=O)C3N2NC(=O)OC(C)(C)C)o1 (stereo unspecified) , please.
0.246

Same lookup for CCN(CC)c1ccc(N2CC=CC34O[C@@H]5/C=C\CCC(C)OC(=O)C5[C@H]3C(=O)N(C(CO)C(C)C)[C@@H]4C2=O)cc1 (stereo partly specified) , please.
-0.062

Same lookup for CC(C)C[C@@H]1NC(=O)[C@H]2C[C@@H](C(=O)NCCCCCCN)[C@@H](c3ccc(O)cc3)N2C1=O , please.
0.055

Same lookup for COCCCNC(=O)[C@@]1(Cc2ccccc2)N=C(c2ccc(OCCCO)cc2)O[C@H]1c1ccccc1 , please.
-0.174

Same lookup for CCOC(=O)[C@H]1CC=C2CC1C(=O)N1CCC[C@@H]1[C@@H]2O[Si](C)(C)C(C)(C)C (stereo partly specified) , please.
-0.237

Same lookup for O=C1[C@H]2C=C(Br)[C@H](C[C@@H]2c2ccccc2)[C@@]12CO2 , please.
-0.152

----------
- SYSTEM: Torsin-1A (Homo sapiens)
- PROCEDURE_SUMMARY: small-molecule binders of mutant TOR1A in lysate, primary screen, cell lysate, small-molecule microarray, COS7 lysate, 635/667 nm fluorescence (AID 1150);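 note: score pools 667 nm emission and signal to noise measuring lysate protein binding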
- CONDITION_SET: COS7 hTOR1A mutant lysate, 635 nm fluorescence, higher = more signal
Consider the following compounds and their measured composite z-score readings.
Give the value as a plain number.

# count of solved cases: 5
Requested read-out: composite z-score. Entry: O=C1OCCC/C=C\[C@H]2OC34C=CCN(Cc5ccccc5)C(=O)[C@H]3N(CCCCCCO)C(=O)[C@@H]4C12 (stereo partly drawn)
1.9

Same lookup for CCOC(=O)[C@H]1CC=C2CC1C(=O)N1CCC[C@@H]1[C@@H]2O[Si](C)(C)C(C)(C)C (stereo partly drawn) , please.
-0.83

Same lookup for COc1ccc([Si](C)(C)[C@H]2[C@H](CCO)O[C@@]3(C(=O)N(C)c4c(Br)cc(C)cc43)[C@@H]2C)cc1 , please.
0.105

Same lookup for CC(C)(C)OC(=O)CC[C@]12N=C(c3ccc(OCCCO)cc3)O[C@H]1c1ccccc1N(CCS(=O)(=O)c1ccccc1)C2=O , please.
0.811

Same lookup for Cc1ccc(S[C@]2(C(=O)NCCN3CCOCC3)CC(=O)N(Cc3ccccc3Cl)[C@@H]2c2ccc(CO)cc2)cc1 , please.
0.269

Others:
Requested read-out: composite z-score. Entry: C=CCN1C(=O)[C@@]2(O[C@@H](CCO)[C@H]([Si](C)(C)c3ccc(OC)cc3)[C@H]2C)c2cc(NC(=O)c3ccc(OC)cc3)ccc21
0.373

Same lookup for [N-]=[N+]=Nc1ccccc1C[C@]1(C(=O)NCC(O)CO)N=C(c2ccc(OCCCO)cc2)O[C@H]1c1ccccc1N=[N+]=[N-] (stereo partly drawn) , please.
0.585

Same lookup for COc1ccc([Si](C)(C)[C@@H]2[C@@H](CC(=O)N3Cc4ccccc4C[C@H]3CO)O[C@]3(C(=O)N(C)c4c(Br)cc(C)cc43)[C@H]2C)cc1 , please.
1.19

Same lookup for CC(C)(C)OC(=O)CC[C@@]1(C(=O)NCCN2CCOCC2)N=C(c2ccc(OCCCO)cc2)O[C@@H]1c1ccccc1N=[N+]=[N-] , please.
1.43

Same lookup for O=C1c2ccccc2[C@@]2(Cc3ccccc3N(CC(F)(F)F)C2=O)[C@H](c2ccc(CO)cc2)N1Cc1ccccc1Cl , please.
0.293

Same lookup for CN(C)CCCCCCNC(=O)[C@@H]1C[C@@H]2C(=O)N[C@@H](CCCCN)C(=O)N2[C@@H]1c1cccc(OCCO)c1 , please.
3.11

Same lookup for COc1cc2c(cc1OC)CN(C(=O)[C@H]1[C@@H]3C(=O)O[C@@H](c4ccccc4)[C@@H](c4ccccc4)N3[C@@H](c3ccc(O)cc3)[C@]13C(=O)Nc1ccc(C#CCNC(N)=O)cc13)CC2 , please.
0.0805

Same lookup for CN1C(=O)C2C=CC(C(O)C3CCCCC3)N(Nc3ccc([N+](=O)[O-])cc3[N+](=O)[O-])C2C1=O (stereo not drawn) , please.
1.04

Same lookup for CCOC(=O)C1=CCC(c2ccc(C)cc2)N(S(=O)(=O)c2ccc(C)cc2)C1 (stereo not drawn) , please.
0.121

Same lookup for C=CCC(OC(C)=O)[C@@H]1[C@@H](N(Cc2ccc(-c3ccccc3)cc2)C(=O)Cc2ccc(F)cc2)c2cc(OCCCO)ccc2N1C(=O)c1ccc(-c2ccccc2)cc1 (stereo partly drawn) , please.
-0.222

Same lookup for CCOC(=O)C[C@H]1[C@H](OC(=O)c2cc3ccccc3oc2=O)[C@@H](NC(=O)C2CCCCC2)c2cc(OCCCO)ccc2N1C(=O)c1ccccc1 , please.
0.159

Same lookup for COc1ccc(CCN2C(=O)[C@@]3(c4ccc([N+](=O)[O-])cc4)CC(=O)N(C4CCCCC4)[C@@H]3c3ccc(CO)cc32)cc1 , please.
0.128

----------
Consider the following molecules and their measured composite z-score readings.
- PROCEDURE_SUMMARY: small-molecule microarray binders of probe aShh, primary screen, biochemical, biotinylated probe, 635/667 nm fluorescence (AID 1114);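 note: probe is biotin-labelled aShh protein from a stem cell growth factor screen; measures binding of labelled protein to compounds printed on the slide; score merges feature fluorescence at 667 nm with signal-to-noise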
- CONDITION_SET: higher = more signal
Give the value as a plain number.

# count of solved cases: 2
Requested read-out: composite z-score. Entry: COC(=O)[C@@]1(Cc2ccccc2)[C@H]2c3cc(C(=O)N4CCCC4)n(Cc4nc5ccccc5[nH]4)c3C[C@H]2CN1C(=O)c1ccccc1
-0.2

Same lookup for CC(C)(C)OC(=O)CC[C@@]1(C(N)=O)N=C(c2ccc(OCCCO)cc2)O[C@@H]1c1ccccc1 , please.
-0.419

Others:
Requested read-out: composite z-score. Entry: CC(C)[C@@H](CO)NC(=O)[C@H]1[C@@H](c2ccccc2)N(c2ccccc2)O[C@@H]1C
-0.186

Same lookup for COc1cc2c(cc1OC)CN(C(=O)[C@H]1[C@@H]3C(=O)O[C@@H](c4ccccc4)[C@@H](c4ccccc4)N3[C@@H](c3ccc(O)cc3)[C@]13C(=O)Nc1ccc(C#CCNC(N)=O)cc13)CC2 , please.
0.0141

Same lookup for CCOC(=O)C1=CCC(c2ccccc2)N(S(=O)(=O)CC[Si](C)(C)C)C1 (stereo not drawn) , please.
-0.262

Same lookup for O=C1c2ccccc2[C@](Cc2ccccc2I)(C(=O)NC2CC2)[C@H](c2ccc(CO)cc2)N1C1CCCCC1 , please.
-0.421

Same lookup for C#CCN(CC1=CCCCC1)[C@H](c1ccccc1Br)[C@@H](O)Cc1ccccc1 , please.
0.108

Same lookup for COc1ccc(C(O)C2C=CC3C(=O)NC(=O)C3N2Nc2ccccn2)cc1 (stereo not drawn) , please.
-0.106
